# assay_system: Cdh1 WD40 domain (yeast) (Saccharomyces cerevisiae, UniProt P53197)
# Construct: the WD40 domains of yeast Cdh1 (aa 241–550; pNH144); 2xStrep-Tag II (N); made in house; host or cells: Sf9 insect cells (baculovirus)
# Sequence (P53197 241-550): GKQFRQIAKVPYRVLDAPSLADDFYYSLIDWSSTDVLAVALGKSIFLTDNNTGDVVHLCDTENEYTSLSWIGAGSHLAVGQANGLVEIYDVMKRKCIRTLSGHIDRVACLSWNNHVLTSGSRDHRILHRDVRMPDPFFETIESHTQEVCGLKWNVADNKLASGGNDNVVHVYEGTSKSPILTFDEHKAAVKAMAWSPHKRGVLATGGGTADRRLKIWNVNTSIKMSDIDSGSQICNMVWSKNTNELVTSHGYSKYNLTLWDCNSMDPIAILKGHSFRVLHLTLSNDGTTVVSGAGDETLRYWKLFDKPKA
# experiment: Fluorescence anisotropy, 10 nM Cy5-labeled degron peptide, yeast Cdh1 WD40
# Assay type: binding
# conditions_used: representative single experiment, Fig. 1c; dark = unlabeled peptide 100 µM; read-out: KD
measurement_label: pKd
Give bare numbers, as −log10 of the molar value.

Field pKd (entry EQKPKRAALSDITNSFNKMN-K(Cy5) [Hsl1 D box and dark KEN mutant, Cy5 Hsl1 D box peptide (10 nM) in presence of unlabeled mutated Hsl1 KEN (100 µM)] ) reads 5.44

====

Provide the reported Kd of each item.
# assay_system: Cdh1 WD40 domain (yeast) (Saccharomyces cerevisiae, UniProt P53197)
# Construct: the WD40 domains of yeast Cdh1 (aa 241–550; pNH144); 2xStrep-Tag II (N); made in house; host or cells: Sf9 insect cells (baculovirus)
# experiment: Fluorescence anisotropy, 10 nM Cy5-labeled degron peptide, yeast Cdh1 WD40
# Format: binding
# conditions_used: replicate 2019-07-08; source data of Fig. 1a (there μM); read-out: Kd
# Source text: To determine the affinities of APC/C degrons for their binding sites, we first used conventional equilibrium binding assays of degron peptide binding to the activator. We used the baculovirus system to produce the WD40 domain of Cdh1 from the budding yeast Saccharomyces cerevisiae and measured fluorescence anisotropy to assess the binding of fluorescently-tagged degron peptides at increasing activator concentrations. The WD40 domain of yeast Cdc20 could not be expressed and was not studied. […]
Give bare numbers, in µM.

List the reported Kd of each substance below.
1. GVSTNKENEGPEYPTKIE-K(Cy5) [Hsl1 KEN and dark D box, Cy5 Hsl1 KEN peptide (10 nM) in presence of unlabeled Hsl1 D box (100 µM)]
2. GVSTNKENEGPEYPTKIE-K(Cy5) [Hsl1 KEN and dark D box mutant, Cy5 Hsl1 KEN peptide (10 nM) in presence of unlabeled mutated Hsl1 D box (100 µM)]

Found:
3.41
6.35
